biological target: Protein farnesyltransferase (Bos taurus, UniProt P29702+P49355); assay: Inhibition of Farnesyltransferase catalyzed incorporation of [3H]-FPP into recombinant Ras-CVIM.; assay type: functional
pIC50: −log10 of the molar value.
Classification field: class 1 = pIC50 at or over 8; class 0 = pIC50 under 8.

Is the recorded value of pIC50 equal to or greater than 8 for this molecule? COc1cc(Cn2cncc2CCN2CCN(c3cccc(Cl)c3)C(=O)C2)ccc1-c1ccc(C(F)(F)F)cc1
class 1

###

target: Geranylgeranyl transferase type I (Homo sapiens, UniProt P49354+P53609); assay: Inhibition of the human Geranylgeranyl transferase type I catalyzed incorporation of [3H]GGPP into a biotinylated peptide corresponding to the C-terminus of human K-Ras.
QUANTITY_KIND: IC50 (nM)
State the answer as a number, implicitly in nM.

N#Cc1ccc2cc1Oc1ccc3cccc(c3c1)N1CCN(CCc3cncn3C2)CC1=O :: 16
COc1cc(Cn2cncc2CN2CCN(c3cccc(Cl)c3)C(=O)C2)ccc1-c1ccc(C(F)(F)F)cc1 :: 70

We next turn to a different compound, shown below.
Endpoint output: IC50 of O=C1CN(Cc2cncn2Cc2ccc(-c3ccc(C(F)(F)F)cc3)nc2)CCN1c1cccc(Cl)c1 . Value?
509
